Reference source: patent US20040037843A1

Target: HLA-A*0203 (Homo sapiens, UniProt P04439, A173T/D140Y/D185E/D98H/E277Q/G131W/G231S/I119V/I121R/I166T/I218V/L180W/L300P/L318F/N151K/N90K/P208A/P217A/Q86G/Q94H/R138H/R169H/T345S)
Test: HLA class I binding assay, purified HLA, inhibition of 125I-labelled probe peptide
Details: A*[…], A2 supermotif cross-reactive binding data
result type: IC50 (µM)
The answer is to be given in µM; state only the numeric part.

-- ask Param item = H-SLHLLSNDMCV-OH [Peptide 1418.66] ; retrieve measured IC50.
-- reply 0.01

----------
Biological target: HLA-A*0203 (Homo sapiens, UniProt P04439, A173T/D140Y/D185E/D98H/E277Q/G131W/G231S/I119V/I121R/I166T/I218V/L180W/L300P/L318F/N151K/N90K/P208A/P217A/Q86G/Q94H/R138H/R169H/T345S)
Assay: HLA class I binding assay, purified HLA, inhibition of 125I-labelled probe peptide
Details: A*[…], A2 supermotif cross-reactive binding data
result type: IC50 (µM)
The answer is to be given in µM; state only the numeric part.

Some solved entries appear below for comparison.
CC(C)C[C@H](NC(=O)[C@H](CO)NC(=O)[C@H](CC(C)C)NC(=O)[C@H](CO)NC(=O)[C@H](C)NC(=O)[C@H](C)NC(=O)[C@H](CCCNC(=N)N)NC(=O)[C@H](C)NC(=O)[C@H](CC(C)C)NC(=O)[C@@H](N)CC(C)C)C(=O)O [Peptide 20.0203] | 0.063
CC(C)C[C@H](NC(=O)[C@H](CO)NC(=O)[C@@H](NC(=O)[C@H](CS)NC(=O)[C@H](CCC(N)=O)NC(=O)[C@H](CC(C)C)NC(=O)[C@@H](N)CO)C(C)C)C(=O)N[C@@H](Cc1c[nH]cn1)C(=O)N[C@H](C(=O)O)C(C)C [Peptide 1418.19] | 0.048

-- ask Param item = CC(C)C[C@H](NC(=O)[C@H](CC(C)C)NC(=O)[C@H](Cc1ccccc1)NC(=O)[C@H](CC(C)C)NC(=O)[C@@H](N)Cc1ccccc1)C(=O)N[C@@H](Cc1ccccc1)C(=O)N[C@@H](Cc1ccccc1)C(=O)N[C@@H](Cc1c[nH]c2ccccc12)C(=O)N[C@H](C(=O)O)C(C)C [Peptide 60.0203] ; retrieve measured IC50.
-- reply 0.625

-- ask Same read-out for CSCC[C@H](NC(=O)[C@H](Cc1ccccc1)NC(=O)[C@H](CCC(=O)O)NC(=O)[C@@H](NC(=O)[C@@H](NC(=O)[C@@H](N)CCCCN)C(C)C)[C@@H](C)O)C(=O)N[C@@H](CC(C)C)C(=O)N[C@@H](CS)C(=O)N[C@@H](C)C(=O)NCC(=O)N[C@H](C(=O)O)C(C)C [Peptide 1418.71] ?
-- reply 0.026

-- ask Same read-out for CC(C)C[C@H](NC(=O)[C@H](Cc1ccccc1)NC(=O)[C@@H](NC(=O)[C@@H](N)C(C)C)C(C)C)C(=O)N[C@H](C(=O)N[C@@H](CC(C)C)C(=O)N[C@@H](CO)C(=O)N[C@H](C(=O)N[C@H](C(=O)N[C@@H](Cc1c[nH]c2ccccc12)C(=O)N[C@H](C(=O)O)C(C)C)[C@@H](C)O)C(C)C)[C@@H](C)O [Peptide 63.0185] ?
-- reply 0.071

-- ask Same read-out for CC[C@H](C)[C@H](NC(=O)[C@H](CO)NC(=O)[C@@H](NC(=O)CNC(=O)[C@H](CCC(=O)O)NC(=O)[C@@H]1CCCN1C(=O)[C@@H]1CCCN1C(=O)[C@H](Cc1ccccc1)NC(=O)[C@H](CC(C)C)NC(=O)[C@H](C)N)C(C)C)C(=O)O [Peptide 1419.6] ?
-- reply 0.133

-- ask Same read-out for CC(C)C[C@H](NC(=O)[C@@H](NC(=O)[C@H](CC(C)C)NC(=O)[C@@H](N)Cc1ccccc1)[C@@H](C)O)C(=O)N[C@@H](CO)C(=O)N[C@H](C(=O)N[C@H](C(=O)N[C@@H](Cc1c[nH]c2ccccc12)C(=O)N[C@H](C(=O)O)C(C)C)[C@@H](C)O)C(C)C [Peptide 60.0216] ?
-- reply 0.0083
